- Tested on: VchCAST RNA-guided transposition machinery (E. coli BL21(DE3) host, lacZ target)
- ASSAY OVERVIEW: relative integration efficiency (T-LR orientation) vs wild-type transposon end (log2 (normalized fold change)); transposon end mutated: right end (5 bp flank + 75 bp right end); higher = more efficient transposition

SEQUENCE CHAIN	relative integration efficiency (log2)
ACATTTGTTGATACAACCATAAAATGATAATTACACCCTATTATTGATAATTATCACACCCATAAATTGATATTGCCTCTGATCATAGTCAGACCAACATTGCTACGACCCGTATTCGCACCGACAC	-0.974
ACATTTCTTCATACAACCATAAAATGATAATTACACCCATAAATTGATAATTATCACACCCAATTTAACTATAACGCTCTGATCATAGTCAGACCAACATTGCTACGACCCGTATTCGCACCGACAC	-2.1
ACATTTCTCGATACAACCATAAAATGATAATTACACCCATAAATTGATAATTATCACACCCAATTTAACTATAACGCTCTGATCATAGTCAGACCAACATTGCTACGACCCGTATTCGCACCGACAC	1
ACATTTGTTGATACAACCATAAAATCATCATTACCCCCATCAATTGATAATTATCACACCCCATTTAACTATAACGCTCTGATCATAGTCAGACCAACATTGCTACGACCCGTATTCGCACCGACAC	-1.95
ACATTTGTTGATACAACCATCAAATGGTAATTCCACCCCTAAATTGATAATTATCACACCCAATTTAACTATAACGCTCTGATCATAGTCAGACCAACATTGCTACGACCCGTATTCGCACCGACAC	-2.59

----------
- Test system: VchCAST RNA-guided transposition machinery (E. coli BL21(DE3) host, lacZ target)
- ASSAY OVERVIEW: relative integration efficiency (T-RL orientation) vs wild-type transposon end (log2 (normalized fold change)); transposon end mutated: left end; higher = more efficient transposition
# label = true if relative integration efficiency (log2) >= -4 else false

SEQUENCE CHAIN	CLASS LABEL
AATGTTGTTGATGCAACCATAAAGTGATATTTAATAATTATTTATAATCAGCAACTTAACAACCATATATTGATATCTCACAAAACAACCATAAGTTGATATTTTTGTGAATCGAGTATTTCAGCAAAACTACTGCAGTAAGAAAGTTACTT	true
AATGTTGTTGATGCAACCATAAAGTGAGCGGGCCGCCGGCGGGCGCCGACTACCAGGCCAACACCCCACCAACGCGCGGTCGCGAGACACCCCACCAACGCCTGGTCGCGGGGGTGTCCGATCTGATTTCAGCAAAACTACTGCAGTAAGAA	false
AATGTTGTTGATGCAACCATAAAGTGATATTTAATCAACCATATATTGATATCTCACAAAACAACCATAAGTTGATATTTTTGTGAATCGAGTATTTCAGCAAAACTACTGCAGTAAGAAAGTTACTTCGTGGTATGGGAGGATCAAGGAGC	true
AATGTTGTTGATGCAACCATAAAGGTCGCGGGCCGCCGGCGGGCGCCGACTACCAGGCCAACACCCCACCAACGCGCGGTCGCGAGACACCCCACCAACGCCTGGTCGCGGGGGTGTCCGATCTGATTTCAGCAAAACTACTGCAGTAAGAA	false
AATGTTGTTGATGCAACCATAAAGTGATATTTAATAATTATTTATAATCAGCAACTTAACAACCATATATTGATATCTCCCACAAAAACAAAACAACCATAAGTTGATATTTTTGTGAATCGAGTATTTCAGCAAAACTACTGCAGTAAGAA	true
AATGTTGTTGATGCAACCATAAAGTGATATTTAACAAGACTAACATTATTAGTAACTGAGAACTATGCAACCATATATTGATATCTCACAAAACAACCATAAGTTGATATTTTTGTGAATCGAGTATTTCAGCAAAACTACTGCAGTAAGAA	true
AATGTTGTTGATGCAACCATAAAGTGATATTTAATAATTATTTATAATCAGCAACTTAACCAACCATATATTGATATCTCACAAAACAACCATAAGTTGATATTTTTGTGAATCGAGTATTTCAGCAAAACTACTGCAGTAAGAAAGTTACT	false
AATGTTGTTGATGCAACCATAAAGTGATATTTAATAATTATTTATAATCAGCAACTTAACCACAAAACAACCATATATTGATATCTCACAAAACAAAACGCCTGGTCGCGGGGGTGTCCGATCTGATTTCAGCAAAACTACTGCAGTAAGAA	true
AATGTTGTTGATGTGTTGCAACCATAAAGTGATATTTAATAATTATTTATAATCAGCAACTTAACCACAAAACAACCATATATTGATATCTCACAAAACAACCATAAGTTGATATTTTTGTGAATCGAGTATTTCAGCAAAACTACTGCAGT	false

----------
- Test system: VchCAST RNA-guided transposition machinery (E. coli BL21(DE3) host, lacZ target)
- ASSAY OVERVIEW: relative integration efficiency (T-RL orientation) vs wild-type transposon end (log2 (normalized fold change)); transposon end mutated: right end (5 bp flank + 75 bp right end); higher = more efficient transposition

SEQUENCE CHAIN	relative integration efficiency (log2)
ACATTTGTTGATACAACCAATAAATGATAATTACACCCATTAATTGATAATAATGACACCGAATTTAACTATAACGCTCTGATCATAGTCAGACCAACATTGCTACGACCCGTATTCGCACCGACAC	-1.48
ACATTTGTTGATACAACCATAAAACGATAATTACACCCATAAATTCATAATTATCACACCCAATTTAACTATAACGCTCTGATCATAGTCAGACCAACATTGCTACGACCCGTATTCGCACCGACAC	-2.21
ACATTTGTTGATACAACCATCCCCTGATAATTACACCCATAAATTGATAATTATCACACCCATAAATTGATATTGCCTCTGATCATAGTCAGACCAACATTGCTACGACCCGTATTCGCACCGACAC	-2.13
ACATTTGTTGATACAACCATAAAAAGATAATTACACCCATAAATTGATAATAATGACACCGAATTTAACTATAACGCTCTGATCATAGTCAGACCAACATTGCTACGACCCGTATTCGCACCGACAC	-1
ACATTTGTTGATACAACCATAAAGTGATATTTACAACCATAAGTTGATATTTTTCACAACCATATATTGATATCTCCTCTGATCATAGTCAGACCAACATTGCTACGACCCGTATTCGCACCGACAC	0.0944

----------
- Tested on: VchCAST RNA-guided transposition machinery (E. coli BL21(DE3) host, lacZ target)
- ASSAY OVERVIEW: relative integration efficiency (T-RL orientation) vs wild-type transposon end (log2 (normalized fold change)); transposon end mutated: right end (5 bp flank + 75 bp right end); higher = more efficient transposition
Please assign a class to every record based on measured relative integration efficiency (log2), with ranges bottom bin (below -3), middle bin (-3 to below -0.9), top bin (-0.9 or more)

SEQUENCE CHAIN	CLASS LABEL
ACATTTGTTGATACAACCATAAAATGATAATTACACCCATAAATTGATAATTATCACACCCATAAATTGATATTGCCTCTGATCATAGCGTACTAGTTAACTAGTTCGAGTCAGACCGCACCGACAC	top bin
ACATTTGTTGATACAACCATAAACGTCGCCGGCACAAACGCCCGGTCGCCGGCGACACAAACGCCCGGTCGCGGTAAGAGGATCATAGTCAGACCAACATTGCTACGACCCGTATTCGCACCGACAC	bottom bin
ACATTTGTTGATACAACCATAAAATGATAATTACACCCATAAATTGATAATTATCACACCCATAAATTGAGCGGTAAGAGGATCATAGTCAGACCAACATTGCTACGACCCGTATTCGCACCGACAC	top bin
ACATTTGTTGATACAACCATAAAGTGATATTTACACCCATAAATTGATATTGCTCACAACCATAAAATGATAATTACTCTGATCATAGTCAGACCAACATTGCTACGACCCGTATTCGCACCGACAC	top bin
ACATTTGTTGATACAACCATATAATGATAATTACACCCATATATTGATAATTATCACACCCATATATTGATATTGCCTCTGATCATAGTCAGACCAACATTGCTACGACCCGTATTCGCACCGACAC	top bin
ACATTTGTGGATACAACCATAAAATGATAATTACACCCATAAATGGATCATTATCACACCCAATTTAACTATAACGCTCTGATCATAGTCAGACCAACATTGCTACGACCCGTATTCGCACCGACAC	middle bin
ACATTTGTTGATACAACCATAAAATGATAATTAATAATTATTTATAATCAGCAACTTAACCACAAAACACCCATAAATTGATAATTAACAAACACCCATAAATTGATATTGCCTCTGATCATAGTCA	bottom bin
ACATTTGTTGATACACCCATAAATTGATATTGCCAACCATAAAATGATAATTATCACACCCATAAATTGATATTGCCTCTGATCATAGTCAGACCAACATTGCTACGACCCGTATTCGCACCGACAC	top bin
ACATTTGTTGATACAACGTATAAATGATAATTACACCCATAAATTGATAATTATCACACCCATAAATTGATATTGCCTCTGATCATAGTCAGACCAACATTGCTACGACCCGTATTCGCACCGACAC	middle bin
ACATTTGTTGATACAACCATAAAAGGATCATTACCCCCATAAATTGATAATTATCACACCCCATTTAACTATAACGCTCTGATCATAGTCAGACCAACATTGCTACGACCCGTATTCGCACCGACAC	middle bin
ACATTTGTCGATACAACCATAAAACGATAATTACACCCATAAATGGATCATTATCACACCCAATTTAACTATAACGCTCTGATCATAGTCAGACCAACATTGCTACGACCCGTATTCGCACCGACAC	middle bin
ACATTTGTTGATACAACCATAAAATGATAATTACTCTGATCATAGTCAGCACCCATAAATTGATAATTATCACACCCATAAATTGATATTGCACCAACATTGCTACGACCCGTATTCGCACCGACAC	bottom bin
ACATTTGTTGATACAACCATATATTGATATCTCCACCCATAAATTGATAATTATCAGTGGGTATTTAACTATAACGCTCTGATCATAGTCAGACCAACATTGCTACGACCCGTATTCGCACCGACAC	middle bin
ACATTTGTTGATACCACCATCAAATGGTAATTACACCCCTAAATTGATAATTATCACACCCAATTTAACTATAACGCTCTGATCATAGTCAGACCAACATTGCTACGACCCGTATTCGCACCGACAC	bottom bin
ACATAACATGATACAACCATAAAATGATAATTACACCCATAAATTGATAATTATCACACCCATAAATTGATATTGCCTCTGATCATAGTCAGACCAACATTGCTACGACCCGTATTCGCACCGACAC	bottom bin
ACATTTGTGGATACAACCCTAAAATGATAATTACACCCATAAATGGATAATTATCACACCCAATTTAACTATAACGCTCTGATCATAGTCAGACCAACATTGCTACGACCCGTATTCGCACCGACAC	bottom bin
ACATTTGTTTATACAACCATAAAATGATAATTACACCCATAAATTTATTATTATCACACCCAATTTAACTATAACGCTCTGATCATAGTCAGACCAACATTGCTACGACCCGTATTCGCACCGACAC	middle bin
ACATTTGTTTATACAACCATAAAATGATAATTACACCCATAAATTCATAATTATCACACCCAATTTAACTATAACGCTCTGATCATAGTCAGACCAACATTGCTACGACCCGTATTCGCACCGACAC	middle bin
ACATTTGTTGATACAACCATATATTGATATCTCCAACCATAAAATGATAATTATCACACCCATAAATTGATAATTACTCTGATCATAGTCAGACCAACATTGCTACGACCCGTATTCGCACCGACAC	top bin
ACATTTGTTGATACAACCAATAAATGATAATTACACCCATAAATTGATAATTATCACACCCATAAATTGATATTGCCTCTGATCATAGTCAGACCAACATTGCTACGACCCGTATTCGCACCGACAC	top bin
